- protocol_text: Experimental lipophilicity logk by RP-HPLC
- experimental_setup: methanol 70% / water 30%, C18
readout_label: Logk

Requested read-out: Logk. Entry: NC(=O)c1nccnc1NCc1ccccc1C(F)(F)F 0.495

Another molecule to look at: Cc1ccccc1CNc1nccnc1C(N)=O 0.320

Another molecule to look at: NC(=O)c1nccnc1NCc1ccccc1 [Compound 1, 3-(Benzylamino)pyrazine-2-carboxamide] 0.215

Another molecule to look at: NC(=O)c1nccnc1NCc1ccccc1F 0.248

Another molecule to look at: COc1ccc(CNc2nccnc2C(N)=O)c(OC)c1 0.274

* * *

What IC50 was measured for each of the following?
- protocol_text: in vitro
- experimental_setup: human, IC50 (cytotoxicity), HepG2, 24 h incubation

Requested read-out: IC50. Entry: NC(=O)c1nccnc1NCc1cccc(C(F)(F)F)c1 [Compound 4] 76.5 µM

Another compound to look at: NC(=O)c1nccnc1NCc1ccc(N)cc1 [Compound 9] > 750 µM

Another compound to look at: Cc1ccc(CNc2nccnc2C(N)=O)cc1 [Compound 8] ≥ 250 µM

Another compound to look at: NC(=O)c1nccnc1NCc1ccc(C(F)(F)F)cc1 [Compound 12] 57.3 µM
